biological target: human V1a receptor (Homo sapiens); construct: expressed in transfected cells; host or cells: HEK293 cells, transiently transfected; cell membranes prepared; assay: human V1a receptor binding study (3H-Vasopressin, SPA beads, HEK293 membranes); details: membranes of HEK293 cells transiently transfected with human V1a receptor; 3H-Vasopressin; Ki calculated using the Cheng-Prussoff equation; read-out: pKi (hV1a) (converted)
Counter-ions that a name gives are not always drawn.
Experimental endpoint: Ki (nM)
Give bare numbers, in nM.

Known results for compounds:
- Compound: "CC(CO)O[C@H]1CC[C@H](c2nnc3n2-c2ccc(Cl)cc2CNC3)CC1 (mixture of isomers) [Example 51, hydrochloride]"
  Result unit: "nM"
  Ki: 186
- Compound: "CC(=O)N1Cc2cc(Cl)ccc2-n2c(nnc2[C@H]2CC[C@H](OC(C)C)CC2)C1"
  Result unit: "nM"
  Ki: 2.51
- Compound: "CCO[C@H]1CC[C@H](c2nnc3n2-c2ccc(Cl)cc2CNC3)CC1 [Example 3, hydrochloride]"
  Result unit: "nM"
  Ki: 63.1
- Compound: "CC(C)O[C@H]1CC[C@H](c2nnc3n2-c2ccc(F)cc2CN(C)C3)CC1"
  Result unit: "nM"
  Ki: 29.5
- Compound: "CC(C)O[C@H]1CC[C@@H](c2nnc3n2-c2ccc(Cl)cc2CN(C(=O)OC(C)(C)C)C3)CC1"
  Result unit: "nM"
  Ki: 8.91

The following compounds each have a reported value; give each one's Ki.
1. CC(C)O[C@H]1CC[C@H](c2nnc3n2-c2ccc(Cl)cc2CN(C)C3)CC1
2. CN1Cc2cc(Cl)ccc2-n2c(nnc2[C@H]2CC[C@H](OC3CCC3)CC2)C1
3. CCO[C@H]1CC[C@@H](c2nnc3n2-c2ccc(Cl)cc2CNC3)CC1 [Example 6, hydrochloride]
4. Clc1ccc2c(c1)CNCc1nnc([C@H]3CC[C@H](OC4CCC4)CC3)n1-2 [Example 31, hydrochloride]
5. CO[C@H]1CC[C@@H](c2nnc3n2-c2ccc(Cl)cc2CN(C)C3)CC1
6. CC(C)(C)OC(=O)N1Cc2cc(Cl)ccc2-n2c(nnc2[C@H]2CC[C@H](OC3CCCC3)CC2)C1 (stereo in doubt)

Reply:
[2.82, 1.29, 891, 10.7, 93.3, 3.24]

The following compounds each have a reported value; give each one's Ki.
1. Clc1ccc2c(c1)CNCc1nnc([C@H]3CC[C@@H](OC4CCOCC4)CC3)n1-2 [Example 63, hydrochloride]
2. CC(C)O[C@H]1CC[C@@H](c2nnc3n2-c2ccc(Cl)cc2CN(C)C3)CC1
3. CC(C)O[C@H]1CC[C@H](c2nnc3n2-c2ccc(Cl)cc2CN(CCO)C3)CC1

Reply:
1: 288; 2: 26.9; 3: 2.29

* * *

Task for the reader: assign each of the following molecules its reported Ki.
target: human V1a receptor (Homo sapiens, UniProt P37288); construct: expressed in transfected cells; host or cells: HEK293 cells, transiently transfected; cell membranes prepared; assay: human V1a receptor binding study (3H-Vasopressin, SPA beads, HEK293 membranes); details: membranes of HEK293 cells transiently transfected with human V1a receptor; 3H-Vasopressin; Ki calculated using the Cheng-Prussoff equation; read-out: pKi (hV1a) (converted)
Sequence (P37288 whole entry): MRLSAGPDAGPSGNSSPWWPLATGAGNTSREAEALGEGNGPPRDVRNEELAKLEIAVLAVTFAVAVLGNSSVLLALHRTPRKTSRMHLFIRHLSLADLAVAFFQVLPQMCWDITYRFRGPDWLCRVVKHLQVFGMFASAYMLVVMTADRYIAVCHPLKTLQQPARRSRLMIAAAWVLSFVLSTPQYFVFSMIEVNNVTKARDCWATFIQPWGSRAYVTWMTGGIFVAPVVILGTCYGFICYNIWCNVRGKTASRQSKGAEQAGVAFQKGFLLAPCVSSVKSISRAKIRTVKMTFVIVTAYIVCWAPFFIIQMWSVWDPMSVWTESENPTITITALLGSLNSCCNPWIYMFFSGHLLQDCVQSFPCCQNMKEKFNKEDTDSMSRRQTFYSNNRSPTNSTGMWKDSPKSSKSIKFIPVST
Counter-ions that a name gives are not always drawn.
Kindly format the answer as number then unit.

Known results for molecules:
- Molecule: "CC(C)O[C@H]1CC[C@H](c2nnc3n2-c2ccc(Cl)cc2CNC3)CC1 [Example 9, hydrochloride]"
  Value reported: "0.0174 µM"
- Molecule: "CC(C)O[C@H]1CC[C@H](c2nnc3n2-c2ccc(Cl)cc2CN(C(C)C)C3)CC1 [Example 13]"
  Value reported: "0.00151 µM"
- Molecule: "FC(F)(F)O[C@H]1CC[C@H](c2nnc3n2-c2ccc(Cl)cc2CNC3)CC1 [Example 66, hydrochloride]"
  Value reported: "0.195 µM"
- Molecule: "CC(CO)O[C@H]1CC[C@H](c2nnc3n2-c2ccc(Cl)cc2CN(C)C3)CC1 (mixture of isomers) [Example 52]"
  Value reported: "0.0191 µM"
- Molecule: "CCO[C@H]1CC[C@@H](c2nnc3n2-c2ccc(Cl)cc2CN(C)C3)CC1 [Example 7]"
  Value reported: "0.055 µM"

The following molecules each have a reported value; give each one's Ki.
1. CC(C)O[C@H]1CC[C@H](c2nnc3n2-c2ccc(Cl)cc2CN(S(C)(=O)=O)C3)CC1 [Example 11]
2. CN1Cc2cc(Cl)ccc2-n2c(nnc2[C@H]2CC[C@H](OC3COC3)CC2)C1 [Example 58]
3. CCC(C)O[C@H]1CC[C@H](c2nnc3n2-c2ccc(Cl)cc2CN(C(=O)OC(C)(C)C)C3)CC1 (mixture of isomers) [Example 25]

Reply:
0.0011 µM
0.0468 µM
0.00372 µM
